B1: Succinate dehydrogenase assembly factor 1, mitochondrial (Homo sapiens), A6NFY7 (parent)
chain: MSRHSRLQRQVLSLYRDLLRAGRGKPGAEARVRAEFRQHAGLPRSDVLRIEYLYRRGRRQLQLLRSGHATAMGAFVRPRAPTGEPGGVGCQPDDGDSPRNPHDSTGAPETRPDGR
partner: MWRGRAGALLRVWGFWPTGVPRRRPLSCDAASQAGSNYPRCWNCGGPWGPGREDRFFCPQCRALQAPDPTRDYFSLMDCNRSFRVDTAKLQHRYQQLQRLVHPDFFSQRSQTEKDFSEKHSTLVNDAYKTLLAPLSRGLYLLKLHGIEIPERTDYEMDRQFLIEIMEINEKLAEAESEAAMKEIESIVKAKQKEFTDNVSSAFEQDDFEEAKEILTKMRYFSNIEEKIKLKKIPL

# Variants of: B1
# Condition set: with hsc20_human HSCB

Mutation annotation: L53A;Y54A;R55A
effect of a mutation on the interaction: with no effect
//
Mutation annotation: G57R
effect of a mutation on the interaction: with no effect
//
Mutation annotation: R55P
effect of a mutation on the interaction: with no effect
//
Mutation annotation: L14V;Y15F;R16K
effect of a mutation on the interaction: with no effect
